// data source = ChEMBL document CHEMBL5104206

Reported Activity is given for each of the following compounds.
# target_entity: 20S proteasome (Homo sapiens) (UniProt P49721+P20618+P28074+P28062+P28065+P28072+P25786+P25787+P25788+P25789+P28066+P60900+O14818+Q8TAA3+P40306+A5LHX3+P49720+P28070+Q99436)
# protocol_text: Stimulation of human 20S proteasome assessed as increase in proteasome activity at 25 uM and measured upto 60 mins using FRET peptide as substrate by FRET assay relative to control
# Assay type: protein-complex assay
# applied_conditions: filed as activator
result_type: Activity (%)

• CCCCCCCC/C=C\CCCCCCCC(=O)NC = 132
• CCCCCCCC/C=C\CCCCCCCC(=O)NCc1ccc(Cl)cc1 = 138
• CCCCCCCC/C=C\CCCCCCCC(=O)N[C@H](C)c1ccccc1 = 225
• CCCCCCCC/C=C\CCCCCCCC(=O)NCC(C)C = 139
• CCCCCCCC/C=C\CCCCCCCC(=O)NCCCCC = 124
• CCCCCCCC/C=C\CCCCCCCC(=O)Nc1ccc(C(C)(C)C)cc1 = 68
• CCCCCCCC/C=C\CCCCCCCC(=O)NC1CCC1 = 202
